experimental_system: BRG-1 (Homo sapiens, UniProt P51532)
Sequence (P51532 whole entry): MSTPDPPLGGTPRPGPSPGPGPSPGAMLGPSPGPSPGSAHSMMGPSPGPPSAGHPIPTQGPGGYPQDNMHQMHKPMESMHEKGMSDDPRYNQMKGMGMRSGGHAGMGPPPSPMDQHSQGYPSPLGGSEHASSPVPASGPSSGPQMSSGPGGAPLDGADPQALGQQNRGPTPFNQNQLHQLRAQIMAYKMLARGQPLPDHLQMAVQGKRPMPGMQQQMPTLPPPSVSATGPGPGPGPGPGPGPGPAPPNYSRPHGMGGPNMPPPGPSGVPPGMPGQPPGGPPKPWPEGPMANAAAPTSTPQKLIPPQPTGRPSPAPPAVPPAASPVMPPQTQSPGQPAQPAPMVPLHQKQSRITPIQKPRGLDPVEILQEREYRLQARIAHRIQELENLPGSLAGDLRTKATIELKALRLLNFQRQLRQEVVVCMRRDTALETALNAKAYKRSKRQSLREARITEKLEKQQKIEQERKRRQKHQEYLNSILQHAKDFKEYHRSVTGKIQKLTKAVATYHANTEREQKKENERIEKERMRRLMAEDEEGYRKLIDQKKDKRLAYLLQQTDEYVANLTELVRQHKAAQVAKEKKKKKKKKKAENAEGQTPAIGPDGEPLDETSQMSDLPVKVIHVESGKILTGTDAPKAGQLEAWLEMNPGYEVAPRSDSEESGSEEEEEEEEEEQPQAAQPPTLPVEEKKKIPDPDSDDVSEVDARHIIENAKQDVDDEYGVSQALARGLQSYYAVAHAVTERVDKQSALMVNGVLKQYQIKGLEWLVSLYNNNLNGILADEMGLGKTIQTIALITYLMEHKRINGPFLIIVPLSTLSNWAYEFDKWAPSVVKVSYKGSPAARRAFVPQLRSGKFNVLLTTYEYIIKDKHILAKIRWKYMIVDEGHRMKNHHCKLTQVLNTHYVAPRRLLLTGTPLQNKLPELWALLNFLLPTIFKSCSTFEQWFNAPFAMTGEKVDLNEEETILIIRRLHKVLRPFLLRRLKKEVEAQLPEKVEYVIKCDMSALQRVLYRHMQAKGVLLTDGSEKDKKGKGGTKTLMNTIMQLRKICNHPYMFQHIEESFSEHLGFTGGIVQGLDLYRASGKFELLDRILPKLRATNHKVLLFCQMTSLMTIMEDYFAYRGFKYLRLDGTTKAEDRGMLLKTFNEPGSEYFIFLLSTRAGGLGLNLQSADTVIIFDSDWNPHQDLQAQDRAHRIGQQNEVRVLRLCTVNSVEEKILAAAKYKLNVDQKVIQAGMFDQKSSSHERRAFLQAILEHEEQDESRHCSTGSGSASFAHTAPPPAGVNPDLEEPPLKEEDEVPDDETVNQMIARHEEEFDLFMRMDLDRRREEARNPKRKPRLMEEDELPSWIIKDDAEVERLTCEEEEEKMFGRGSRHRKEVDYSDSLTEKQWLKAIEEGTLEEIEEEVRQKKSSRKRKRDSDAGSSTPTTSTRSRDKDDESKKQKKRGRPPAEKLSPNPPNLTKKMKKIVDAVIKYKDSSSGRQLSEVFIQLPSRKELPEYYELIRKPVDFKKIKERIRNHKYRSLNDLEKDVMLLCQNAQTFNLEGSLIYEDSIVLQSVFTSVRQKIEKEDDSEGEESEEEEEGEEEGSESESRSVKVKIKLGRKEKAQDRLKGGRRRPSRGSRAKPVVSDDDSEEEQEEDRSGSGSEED
assay: ATPase catalytic activity assay (ADP-Glo), BRG-1
IC50 values by entry
attribute_measured: IC50

> print(dat)
                           smiles.structure          result
1  C[C@@]1(F)COCc2ccc(C(=O)NCc3cc4nc(-c5cccc(C(F)F)n5)ccc4nn3)cc21  500 to 1000 nM
2  C[C@@]1(F)COCc2ncc(C(=O)NCc3cc4nc(-c5cncc(N6CCC6)n5)ccc4cn3)cc21  500 to 1000 nM
3  C[C@@]1(C#N)COCc2ccc(C(=O)NCc3ncc4ccc(-c5cncc(C6CC6)n5)nc4c3F)cc21   100 to 500 nM
4  C[C@@]1(C#N)COCc2ccc(C(=O)NCc3cc4nc(-c5ccc(N6CCC6)cc5)ccc4cn3)cc21  500 to 1000 nM
5  CN1C(=O)Cc2ccc(-c3ccc4cnc(CNC(=O)c5ccc6c(c5)[C@](C)(C#N)COC6)cc4n3)cc21  500 to 1000 nM
6  C[C@@]1(F)COCc2c(F)cc(C(=O)NCc3cc4nc(-c5cncc(N6CCC6)n5)ccc4cn3)cc21   100 to 500 nM
7  C[C@@]1(C#N)COCc2ccc(C(=O)NCc3cc4nc(-c5ccnc(N6CCC6)n5)ccc4cn3)cc21   100 to 500 nM
8  CNC(=O)c1cccc(-c2ccc3cnc(CNC(=O)c4ccc5c(c4)[C@](C)(C#N)COC5)cc3n2)n1  500 to 1000 nM
9  C[C@@]1(C#N)COCc2ccc(C(=O)NCc3cc4nc(-c5cncc(N6CC(F)C6)n5)ccc4cn3)cc21   100 to 500 nM
